testTarget: human ether-à-go-go-related gene (hERG) potassium channel (human, UniProt Q12809)
Sequence (Q12809 whole entry, looked up): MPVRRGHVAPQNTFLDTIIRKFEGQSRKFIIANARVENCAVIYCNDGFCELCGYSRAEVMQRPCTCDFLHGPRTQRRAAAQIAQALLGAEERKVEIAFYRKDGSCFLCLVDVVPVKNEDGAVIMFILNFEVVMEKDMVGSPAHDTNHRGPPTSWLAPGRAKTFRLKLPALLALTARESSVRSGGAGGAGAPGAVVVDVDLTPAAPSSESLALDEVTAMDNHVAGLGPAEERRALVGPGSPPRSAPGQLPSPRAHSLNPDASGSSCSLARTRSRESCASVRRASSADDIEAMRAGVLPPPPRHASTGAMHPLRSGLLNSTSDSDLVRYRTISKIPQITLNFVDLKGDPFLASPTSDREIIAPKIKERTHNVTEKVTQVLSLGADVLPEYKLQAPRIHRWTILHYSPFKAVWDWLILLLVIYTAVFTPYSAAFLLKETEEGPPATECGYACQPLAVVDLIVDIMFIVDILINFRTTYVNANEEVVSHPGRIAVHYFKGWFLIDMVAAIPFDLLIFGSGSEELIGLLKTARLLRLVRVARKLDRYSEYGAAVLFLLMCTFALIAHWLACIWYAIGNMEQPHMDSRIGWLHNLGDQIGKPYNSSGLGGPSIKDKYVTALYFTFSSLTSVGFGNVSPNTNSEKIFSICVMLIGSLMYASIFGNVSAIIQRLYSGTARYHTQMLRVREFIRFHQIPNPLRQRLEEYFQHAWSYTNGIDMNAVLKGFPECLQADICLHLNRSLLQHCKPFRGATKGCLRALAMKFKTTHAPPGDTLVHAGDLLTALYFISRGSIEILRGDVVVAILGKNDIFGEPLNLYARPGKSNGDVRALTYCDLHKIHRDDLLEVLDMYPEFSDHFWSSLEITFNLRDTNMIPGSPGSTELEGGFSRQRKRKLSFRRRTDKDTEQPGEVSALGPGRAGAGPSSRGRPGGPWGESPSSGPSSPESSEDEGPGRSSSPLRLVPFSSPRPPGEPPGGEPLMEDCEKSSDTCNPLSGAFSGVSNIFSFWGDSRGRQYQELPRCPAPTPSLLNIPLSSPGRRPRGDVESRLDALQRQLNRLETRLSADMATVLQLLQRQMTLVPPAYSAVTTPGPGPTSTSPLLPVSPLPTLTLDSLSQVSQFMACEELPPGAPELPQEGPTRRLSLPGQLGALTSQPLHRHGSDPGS
experimentDescription: primary screen, population patch clamp on CHO cells stably expressing hERG; higher = less effect of the substance
In all, about 310,000 compounds went through this assay and about 2,200 (0.71%) showed an effect of 50% or more. Effects have a minus sign here. The sample as a whole holds a higher share of strong results than the screen did.
Overview of reported hERG current change (%, negative = inhibition) at 1uM across a group of compounds:
propertyMeasured: hERG current change (%, negative = inhibition) at 1uM

> print(dat)
                                   compound  testvalue
1    COCCNC(=S)N/N=C/c1ccc([N+](=O)[O-])cc1        12%
2        CCOc1ccc(Cc2noc3c2C(=O)CCC3)cc1OCC      23.3%
3  Cc1ccc(C2=CC(=O)C[C@H](c3ccc(F)cc3)C2)cc1      14.5%
4    S=C(Nc1ccc(Cl)cc1Cl)N1CCN(c2ccccn2)CC1      12.7%
5  CCCNc1nc(C)cc(-c2cc(C(=O)Nc3ccccc3)on2)n1      6.25%
6  CCC(=O)N1CCc2cc(S(=O)(=O)NC(C(=O)NCc3ccc(C)cc3)C(C)C)ccc21 (stereo not drawn)      1.57%

====

testTarget: human ether-à-go-go-related gene (hERG) potassium channel (human, UniProt Q12809)
experimentDescription: primary screen, population patch clamp on CHO cells stably expressing hERG; higher = less effect of the substance
Hit rate of the full screen: of about 310,000 compounds, about 2,200 (0.71%) showed an effect of 50% or more. The effect is printed as a negative number. Only a selection was taken, and strong results are over-represented in it overall.
Overview of reported hERG current change (%, negative = inhibition) at 1uM across a group of molecules:
propertyMeasured: hERG current change (%, negative = inhibition) at 1uM (%)

> print(dat)
                             moleculesmiles  testvalue
1  O=C(CCc1ccccc1)N1CCN(c2ccc([N+](=O)[O-])cc2)CC1      -67.4
2  CCOc1cccc2sc(N(CCN(CC)CC)C(=O)c3cccc([N+](=O)[O-])c3)nc12.Cl      -44.9
3     COc1ccc(N2CCN(C(=O)CSc3ccccc3)CC2)cc1       12.7
4        Fc1ccc(Cn2nnc(-c3ccc(Cl)cc3)n2)cc1       11.5

====

Overview of reported hERG current change (%, negative = inhibition) at 1uM across a group of molecules:
testTarget: human ether-à-go-go-related gene (hERG) potassium channel (human)
experimentDescription: primary screen, population patch clamp on CHO cells stably expressing hERG; higher = less effect of the substance
The campaign covered roughly 310,000 compounds. About 2,200 (0.71%) showed an effect of 50% or more. The effect is printed as a negative number. The full list was thinned out, with strong results kept by preference.
propertyMeasured: hERG current change (%, negative = inhibition) at 1uM (%)

> print(dat)
                             moleculesmiles  testvalue
1  CCOC(=O)C1(CCOc2ccccc2)CCN(Cc2cccc(OC)c2)CC1      -24.4
2  O=C1c2ccccc2-c2nc3ncnn3c(-c3ccccc3Cl)c21       5.18
3        NC(=O)CSc1nc2ccccc2c(=O)n1Cc1ccco1      -15.1

====

testTarget: human ether-à-go-go-related gene (hERG) potassium channel (human, UniProt Q12809)
experimentDescription: primary screen, population patch clamp on CHO cells stably expressing hERG; higher = less effect of the substance
The campaign covered roughly 310,000 compounds. About 2,200 (0.71%) showed an effect of 50% or more. The effect is printed as a negative number. Shown is part of a subset that was picked to be rich in strong results.
propertyMeasured: hERG current change (%, negative = inhibition) at 1uM (%)

> print(dat)
                                   compound  testvalue
1  O=C(CCCN1CCC(C(=O)c2ccc(F)cc2)CC1)c1ccc(F)cc1      -86.2
2  COc1ccc(/C=C/CN2CCC(n3nccc3NC(=O)C3CCCC3)CC2)cc1      -92.1
3  Cc1ccc(C(=O)NC2CCN(CCCC(=O)c3ccc(F)cc3)CC2)cc1      -72.9
4  Cc1ccc(OCC(=O)Nc2cc(-c3nn4c(C)nnc4s3)ccc2C)cc1      -2.75
5  CC1CC(C)CN(CCCNC(=O)C2CCN(c3ncnc4c3sc3cccc(F)c34)CC2)C1 (stereo not drawn)      -14.9
6  COc1ccc(OCC(=O)Nc2cc(-c3nn4c(C)nnc4s3)ccc2C)cc1       3.66
7  Cc1ccc(C(=O)NC2CCN(S(=O)(=O)c3ccc(F)cc3)CC2)cc1       9.73
8  COc1ccc(/C=C/CN2CCC(n3nccc3NC(=O)C3CC3)CC2)cc1      -59.6
9       O=C(NC1CCN(Cc2ccccc2Cl)CC1)c1ccccc1         10

====

Overview of reported hERG current change (%, negative = inhibition) at 1uM across a group of compounds:
testTarget: human ether-à-go-go-related gene (hERG) potassium channel (human, UniProt Q12809)
experimentDescription: primary screen, population patch clamp on CHO cells stably expressing hERG; higher = less effect of the substance
Screen size: about 310,000 compounds; about 2,200 (0.71%) showed an effect of 50% or more. The effect is printed as a negative number. What follows is part of a selection rich in strong results, with near analogues and random picks from the rest.
propertyMeasured: hERG current change (%, negative = inhibition) at 1uM (%)

> print(dat)
                              moleculesmiles  unitofmeasure  testvalue
 1  N/C(Cc1ccc([N+](=O)[O-])cc1)=N\OC(=O)c1ccc2ccccc2c1              %       4.74
 2      O=C(NCCCN1CCc2ccccc2C1)Nc1ccc(Cl)cc1              %      -44.5
 3         CC1CCN(CCCNC(=O)c2cc3sccc3n2C)CC1              %      -23.6
 4  CCOc1ccc(/C=C(/NC(=O)c2ccc(Cl)cc2)C(=O)O)cc1OCC              %      -4.42
 5  N=c1c(C(=O)NCCN2CCOCC2)cc2c(=O)n3ccccc3nc2n1CCc1ccccc1              %      -33.1
 6  COc1ccc(N2CCN(CCCNC(=O)c3cc4sccc4n3C)CC2)cc1              %      -77.7
 7         Cc1cc(C)n2nc(NCc3cccc(Br)c3)nc2n1              %      -32.1
 8  CC1(C)CC(=O)c2cc(OCC(=O)NCCCN3CCN(c4ccc(F)cc4)CC3)ccc2O1              %      -60.3
 9  COc1ccc(CCNC(=O)c2cc3c(=O)n4ccccc4nc3n(Cc3ccco3)c2=N)cc1OC              %      -74.3
10  COc1ccc(CCNC(=O)c2cc3c(=O)n4cccc(C)c4nc3n(Cc3ccco3)c2=N)cc1OC              %      -21.8
11  O=C(NCCNC(=O)c1cc(OCC(F)(F)F)ccc1OCC(F)(F)F)Nc1ccccc1              %        -15
12  N=c1c(C(=O)NCc2ccccc2)cc2c(=O)n3ccccc3nc2n1Cc1ccco1              %      -75.5

====

Overview of reported hERG current change (%, negative = inhibition) at 1uM across a group of molecules:
testTarget: human ether-à-go-go-related gene (hERG) potassium channel (human)
experimentDescription: primary screen, population patch clamp on CHO cells stably expressing hERG; higher = less effect of the substance
Out of some 310,000 compounds screened, about 2,200 (0.71%) showed an effect of 50% or more. The effect is printed as a negative number. Shown is part of a subset that was picked to be rich in strong results.
propertyMeasured: hERG current change (%, negative = inhibition) at 1uM (%)

> print(dat)
                                    molecule  testvalue
 1  COc1ccccc1CCNC(=O)C(=O)NCC1OCCN1S(=O)(=O)c1cc(F)ccc1F (stereo not drawn)       8.74
 2  Cc1c(C(C)(C)C)s/c(=N/S(=O)(=O)c2ccccc2)n1C       12.6
 3  CCc1ccc(CN(C)C(=O)C2CCC(=O)N(Cc3cccc(OC)c3)C2)nc1 (stereo not drawn)       4.11
 4  COc1ccc(N2C(=O)/C(=C\c3ccco3)N=C2SCC(=O)N(C(C)C)C(C)C)cc1Cl       20.1
 5                      O=C(O)c1ccccc1C(=O)O       4.51
 6  CSc1ccccc1C(=O)C1CCCN(C(=O)CCc2cccnc2)C1 (stereo not drawn)       8.69
 7  CN(CC(=O)Nc1ccccc1Cl)C(=O)COC(=O)/C=C/c1ccc(C(F)(F)F)cc1       16.2
 8  CCOC(=O)C1(CCOc2ccccc2)CCN(Cc2cc(OC)c(O)c(OC)c2)CC1      -66.6
 9            Cl.O=C(NCCN1CCCC1)c1cccc(Cl)c1      -13.1
10  COc1ccc(CC(=O)N2CCN(S(=O)(=O)c3cc(Cl)ccc3Cl)CC2)cc1         14
11   CC(C)c1ccc(CNc2ccc([N+](=O)[O-])cn2)cc1       9.11
12  CCOC(=O)C1(CCOc2ccccc2)CCN(Cc2cc(OC)ccc2OC)CC1      -60.1
13  CC(C)c1ccc(C(=O)NCCCN2CCN(CCCNC(=O)c3ccc(C(C)C)cc3)CC2)cc1      -86.4
14  COc1cccc(N2CCN(S(=O)(=O)c3ccc(-c4coc(C)n4)cc3)CC2)c1       11.7
15  CCOC(=O)c1[nH]c(C)c(C(=O)N2CCN(c3ccccc3)CC2)c1C      -3.94
16  Clc1ccccc1Cc1noc(CN2CCCCC2CCc2ccccn2)n1 (stereo not drawn)      -3.35
17  CCCCCCCCCCCCCCCC(=O)OC/C=C(C)/C=C/C=C(C)/C=C/C1=C(C)CCCC1(C)C       10.2
18  CC1CC(C)CN(c2nc3c(c(=O)n(C)c(=O)n3C)n2C)C1 (stereo not drawn)       11.1
19  COc1ccc(C(=O)CCN2CCN(c3ccccc3OC)CC2)cc1.Cl      -4.48
20  CN(CCNC(=O)C1CCC(=O)N(Cc2ccc(Cl)cc2)C1)CCc1ccccc1 (stereo not drawn)      -50.5
21  CCOC(=O)C1(CCOc2ccccc2)CCN(Cc2ccc3nonc3c2)CC1       0.31
22  CCOC(=O)C1(CCOc2ccccc2)CCN(Cc2ccc(C)o2)CC1      -32.8
23     CCOC(=O)c1sc(=S)n(-c2cc(OC)ccc2OC)c1N       6.58
24  O=C(NCCCN1CCN(CCCNC(=O)c2cccc(Cl)c2)CC1)c1cccc(Cl)c1      -74.5
25  Cc1[nH]c(=O)[nH]c(=O)c1S(=O)(=O)N1CCC(C(=O)NC(C)c2ccccc2)CC1 (stereo not drawn)       7.35
26          CCCCNC(=O)/C(=C/c1ccccc1)NC(C)=O       1.06
27               COc1ccccc1-n1cnc(N)c1C(C)=O       6.83
28             CCn1c(CCc2ccccc2)nnc1SCC(N)=O       13.3
29  CCOC(=O)c1c(CN2CCN(c3ccccc3)CC2)oc2ccc(O)cc12       12.6
30  Cc1nc(-c2ccccc2)nc2[nH]c(C(C)C)cc(=O)c12      -5.88
31  CN(C)C(=S)NC(=O)C12CC3(C)CC(C)(CC(C)(C3)C1)C2       12.9
32  CN(CCOc1ccccc1)C(=O)C1CCC(=O)N(CCc2ccc(Cl)cc2)C1 (stereo not drawn)      -51.2
33  O=C1OC(NC(=O)c2ccccc2)C(n2cc(CO)nn2)=C1Cl (stereo not drawn)      -3.22
